The reported numbers originate from patent US11413264B2.

Biological target: norepinephrine transporter (NET) (Homo sapiens)
Construct: expressed in transfected cells; host or cells: CHO cells (membrane fractions)
Sequence (P23975 whole entry): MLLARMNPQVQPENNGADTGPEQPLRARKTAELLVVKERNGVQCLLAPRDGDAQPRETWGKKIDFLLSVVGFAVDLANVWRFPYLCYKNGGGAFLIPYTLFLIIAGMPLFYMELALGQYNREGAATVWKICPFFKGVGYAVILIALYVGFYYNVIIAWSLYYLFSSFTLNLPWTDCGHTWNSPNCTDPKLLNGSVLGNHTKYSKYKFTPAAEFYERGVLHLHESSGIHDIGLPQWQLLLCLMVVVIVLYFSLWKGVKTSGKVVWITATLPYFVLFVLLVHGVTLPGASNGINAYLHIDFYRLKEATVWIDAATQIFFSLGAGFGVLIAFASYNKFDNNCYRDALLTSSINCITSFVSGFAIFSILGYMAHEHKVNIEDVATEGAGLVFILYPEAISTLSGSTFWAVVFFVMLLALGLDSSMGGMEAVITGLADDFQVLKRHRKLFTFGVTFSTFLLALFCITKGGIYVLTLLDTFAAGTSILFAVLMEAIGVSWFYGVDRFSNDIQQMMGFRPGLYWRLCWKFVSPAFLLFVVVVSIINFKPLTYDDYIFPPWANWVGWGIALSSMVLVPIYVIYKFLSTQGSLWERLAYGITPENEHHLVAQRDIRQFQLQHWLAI
Test: Competitive radioligand binding assay, norepinephrine transporter (antagonist radioligand)
Conditions: Norepinephrine transporter; compound at 10 μM; 2nd individual result; read-out: % inhibition of control specific binding, 2nd
Method: Compounds of the invention were tested for pharmacological activity in comparison to APC. Eight binding assays were carried out to provide a binding profile for each compound, including binding to dopamine transporter (DAT), norepinephrine transporter (NET), serotonin (5-HT) transporter (SERT), alpha2A adrenergic receptor (Alpha2A), alpha2C adrenergic receptor (Alpha2C), D2S dopamine receptor (D2S), D2L dopamine receptor (D2L), and vesicular monoamine transporter (VMAT2). […]
Counter-ions that a name gives are not always drawn.
This section presents compounds with their documented inhibition at 10 µM values.
Provide only the numeric value, understood in %.

NC(=O)OC[C@H](N)Cc1ccccc1 [APC, (R)-2-amino-3-phenylpropyl carbamate, reference compound] = 16
NC(=O)NC[C@H](N)Cc1ccccc1 [Compound 3, hydrochloride] = 23
N[C@@H](COS(N)(=O)=O)Cc1ccccc1 [Compound 9, hydrochloride] = 14
NC(=O)SC[C@H](N)Cc1ccccc1 [Compound 10, hydrochloride] = 91.7

Query: Please tell me: inhibition at 10 µM of NC(=S)OC[C@H](N)Cc1ccccc1 [Compound 8, dihydrochloride] , system norepinephrine transporter (NET) (Homo sapiens)?
Result: 46.1

Query: Input NC(=O)CC[C@H](N)Cc1ccccc1 [Compound 4, hydrochloride]
Result: -21.9

---

biological target: D2L dopamine receptor (D2L) (Homo sapiens, UniProt P14416); construct: expressed in transfected cells; host or cells: HEK-293 cells (membrane fractions); test: Competitive radioligand binding assay, D2L (antagonist radioligand); conditions: D2L; compound at 10 μM; 2nd individual result; read-out: % inhibition of control specific binding, 2nd
Sequence (P14416 whole entry): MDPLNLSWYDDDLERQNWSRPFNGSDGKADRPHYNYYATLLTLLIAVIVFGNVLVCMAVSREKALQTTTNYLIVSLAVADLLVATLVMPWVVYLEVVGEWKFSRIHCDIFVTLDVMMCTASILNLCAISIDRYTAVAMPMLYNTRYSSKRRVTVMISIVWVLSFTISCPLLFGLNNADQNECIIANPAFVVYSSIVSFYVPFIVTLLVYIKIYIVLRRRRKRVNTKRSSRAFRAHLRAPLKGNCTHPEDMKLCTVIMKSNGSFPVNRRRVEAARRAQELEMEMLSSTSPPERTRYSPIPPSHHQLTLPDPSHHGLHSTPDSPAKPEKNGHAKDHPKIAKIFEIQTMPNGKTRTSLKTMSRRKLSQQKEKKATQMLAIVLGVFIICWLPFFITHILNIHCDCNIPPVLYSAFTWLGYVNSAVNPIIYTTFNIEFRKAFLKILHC
Where a name gives a salt, the structure may show the parent alone.
As shown below, each of these molecules has a reported inhibition at 10 µM value.
Response body: numeric value in %, unit text excluded.

NC(=S)OC[C@H](N)Cc1ccccc1 [Compound 8, dihydrochloride] = 2.7
NC(=O)SC[C@H](N)Cc1ccccc1 [Compound 10, hydrochloride] = 35.6
N[C@@H](COS(N)(=O)=O)Cc1ccccc1 [Compound 9, hydrochloride] = -6.8
NC(=O)CC[C@H](N)Cc1ccccc1 [Compound 4, hydrochloride] = 0.8
NC(=O)OC[C@H](N)Cc1ccccc1 [APC, (R)-2-amino-3-phenylpropyl carbamate, reference compound] = 4.6

Turning now to a further record.
Query: Entry under review: NC(=O)NC[C@H](N)Cc1ccccc1 [Compound 3, hydrochloride] . Reported inhibition at 10 µM?
Result: 7.6

---

biological target: serotonin (5-HT) transporter (SERT) (Homo sapiens, UniProt P31645); construct: expressed in transfected cells; host or cells: CHO cells (membrane fractions); assay: Competitive radioligand binding assay, 5-HT transporter (antagonist radioligand); conditions: compound at 10 μM; [3H]imipramine 2 nM; human recombinant (CHO cells); read-out: % Inhibition of Binding at Each Transporter or Receptor Target, SERT
Sequence (P31645 whole entry): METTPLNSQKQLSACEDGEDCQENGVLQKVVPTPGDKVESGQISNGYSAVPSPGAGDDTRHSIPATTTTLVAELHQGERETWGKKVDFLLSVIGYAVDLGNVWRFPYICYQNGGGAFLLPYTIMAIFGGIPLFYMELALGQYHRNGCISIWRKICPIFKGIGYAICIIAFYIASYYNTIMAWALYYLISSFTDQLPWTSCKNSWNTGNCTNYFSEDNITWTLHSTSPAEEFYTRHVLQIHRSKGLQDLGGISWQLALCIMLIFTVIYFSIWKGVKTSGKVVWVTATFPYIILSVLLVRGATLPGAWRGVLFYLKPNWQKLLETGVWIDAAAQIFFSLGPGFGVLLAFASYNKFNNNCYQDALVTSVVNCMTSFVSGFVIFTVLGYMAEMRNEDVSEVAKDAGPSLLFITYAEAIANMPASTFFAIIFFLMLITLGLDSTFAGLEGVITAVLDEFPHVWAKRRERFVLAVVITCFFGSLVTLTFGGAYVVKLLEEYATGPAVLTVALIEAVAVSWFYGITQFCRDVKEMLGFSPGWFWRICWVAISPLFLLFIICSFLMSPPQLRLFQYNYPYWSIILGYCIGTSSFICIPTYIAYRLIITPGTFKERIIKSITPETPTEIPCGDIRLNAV
Where a name gives a salt, the structure may show the parent alone.
measurement-kind: inhibition at 10 µM (%)
Note: unit % is implicit; provide only the numeric part.

Worked cases, inhibition at 10 µM given:
N[C@@H](COS(N)(=O)=O)Cc1ccccc1 [Compound 9, hydrochloride] = -2.7
NC(=O)CC[C@H](N)Cc1ccccc1 [Compound 4, hydrochloride] = -0.5
NC(=O)SC[C@H](N)Cc1ccccc1 [Compound 10, hydrochloride] = 21.9
NC(=S)OC[C@H](N)Cc1ccccc1 [Compound 8, dihydrochloride] = -2.1

Query: Tell me the measured inhibition at 10 µM of NC(=O)NC[C@H](N)Cc1ccccc1 [Compound 3, hydrochloride] , please.
Result: -1.4

Query: Queued: NC(=O)OC[C@H](N)Cc1ccccc1 [APC, (R)-2-amino-3-phenylpropyl carbamate, reference compound]
Result: -4.8
